# reported max response; entries follow
# protocol description: Cycloheximide Counterscreen for Small Molecule Inhibitors of Shiga Toxin; also: read at 38.3 µM for the half of the compounds with a filed dose; 0% is about no effect
# condition parameters: cell reporter, cycloheximide protein synthesis inhibition counterscreen; active compounds read high
About 37,000 (12%) of roughly 300,000 compounds were called active. This excerpt belongs to a sample that is enriched for actives.

compound: Cc1oc2cc([N+](=O)[O-])c(O)c([N+](=O)[O-])c2c1C(=O)c1ccc(Br)cc1
max response, %: -7.47
//
compound: COc1ccc(-c2cc(=O)c3c(O)cc(O[C@@H]4O[C@H](CO[C@@H]5O[C@@H](C)[C@H](O)[C@@H](O)[C@H]5O)[C@@H](O)[C@H](O)[C@H]4O)cc3o2)cc1O
max response, %: -0.55
//
compound: O=C(O)CCCn1cc(NC(=O)COc2cccc(Cl)c2)cn1
max response, %: -1.65
//
compound: Cc1ccc(CN(Cc2cccnc2)C(=S)Nc2cc(Cl)ccc2C)cc1
max response, %: -1.05
//
compound: O=C(NC1CCCCCC1)c1cccnc1Sc1ccc(Cl)cc1
max response, %: -2.31
//
compound: Cc1ccc(C(=O)NCCc2nnc(SCC(=O)Nc3cccc(C(=O)O)c3)n2C)cc1
max response, %: -0.755
//
compound: CCn1c(=O)c(C(=O)NCc2ccc3c(c2)OCO3)c(O)c2ccccc21
max response, %: -2.8
//
compound: Cc1cc(NC(=O)CSc2nc(C(C)C)nc3sc4c(c23)CCC(C)C4)no1 (stereo unspecified)
max response, %: -1.25
//
compound: CC1CCc2sc3nc(N4CCN(CCO)CC4)n4ncnc4c3c2C1 (stereo unspecified)
max response, %: 22.8
//
compound: N#Cc1c2c(c(N3CCN(CCO)CC3)n3c1nc1ccccc13)CCCC2
max response, %: -2.13
//
compound: CCC1C=C(c2ccccc2)C=CN=C1N(CC)CC (stereo unspecified)
max response, %: -0.252
